# Lookup of reported Max Inhibition (%), NFκB-luciferase, 15 pM hIL-36β keyed by entry
ASSAY TARGET: T1, full-length human IL-36R on cells (human, UniProt Q9HB29 20-575)
T1 sequence (looked up): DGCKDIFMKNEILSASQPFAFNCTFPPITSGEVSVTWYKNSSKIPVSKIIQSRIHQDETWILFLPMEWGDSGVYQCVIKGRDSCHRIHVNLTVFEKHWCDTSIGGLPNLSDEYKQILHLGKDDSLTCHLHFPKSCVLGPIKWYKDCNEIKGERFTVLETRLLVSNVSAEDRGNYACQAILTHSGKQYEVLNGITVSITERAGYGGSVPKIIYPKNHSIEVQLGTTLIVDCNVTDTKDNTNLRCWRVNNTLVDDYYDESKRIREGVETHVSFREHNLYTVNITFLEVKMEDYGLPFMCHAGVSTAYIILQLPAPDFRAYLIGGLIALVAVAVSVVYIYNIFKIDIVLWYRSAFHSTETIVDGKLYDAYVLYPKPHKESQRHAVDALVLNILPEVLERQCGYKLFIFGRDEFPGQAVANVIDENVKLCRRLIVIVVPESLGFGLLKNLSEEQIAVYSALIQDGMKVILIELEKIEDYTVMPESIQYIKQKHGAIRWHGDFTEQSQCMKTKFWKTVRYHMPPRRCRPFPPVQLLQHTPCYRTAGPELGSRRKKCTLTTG
ASSAY METHOD TEXT: cell-based or functional assay
VALUE KIND: Max Inhibition (%), NFκB-luciferase, 15 pM hIL-36β

{"columns": ["BINDER", "UNIT ABBREVIATION", "MEASURED NUMBER"],
 "data": [
  ["H4H14700P2 (antibody, human IgG4 S228P, kappa, V domains shown) VH: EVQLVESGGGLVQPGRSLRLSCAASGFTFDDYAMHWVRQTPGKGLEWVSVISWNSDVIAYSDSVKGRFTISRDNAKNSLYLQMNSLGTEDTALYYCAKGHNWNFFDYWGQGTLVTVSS VL: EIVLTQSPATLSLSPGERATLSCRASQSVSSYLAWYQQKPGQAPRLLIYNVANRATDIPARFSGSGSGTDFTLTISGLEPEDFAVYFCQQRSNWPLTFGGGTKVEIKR", "%", 100],
  ["H4H14728P (antibody, human IgG4 S228P, kappa, V domains shown) VH: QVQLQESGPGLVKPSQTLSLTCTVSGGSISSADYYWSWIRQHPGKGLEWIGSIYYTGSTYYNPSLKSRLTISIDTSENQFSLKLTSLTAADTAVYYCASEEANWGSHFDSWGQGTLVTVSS VL: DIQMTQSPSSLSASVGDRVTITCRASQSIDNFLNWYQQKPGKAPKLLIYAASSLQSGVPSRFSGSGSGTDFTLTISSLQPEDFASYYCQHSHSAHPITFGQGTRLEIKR", "%", 99],
  ["H4H14708P2 (antibody, human IgG4 S228P, kappa, V domains shown) VH: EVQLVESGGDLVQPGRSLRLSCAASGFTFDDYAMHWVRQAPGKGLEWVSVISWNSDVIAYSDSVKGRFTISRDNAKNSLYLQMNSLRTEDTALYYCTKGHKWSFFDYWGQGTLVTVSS VL: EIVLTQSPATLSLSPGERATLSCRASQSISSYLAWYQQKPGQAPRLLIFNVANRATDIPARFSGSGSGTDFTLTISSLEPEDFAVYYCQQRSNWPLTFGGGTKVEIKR", "%", 100]
]}
